Assay: in vivo
Conditions: rat, plasma, inhaled or intranasal, 90 ug/kg
parameter: AUC (ng·h/mL)
Give the quantity in ng·h/mL, number only.

query: Would you kindly share the measured AUC for O=NO [sodium nitrite] ?
result: 15.8

====

Assay: in vivo
Conditions: male, Sprague-Dawley, rat, plasma, inhaled or intranasal, 10 mg/kg, AUC, IT (dry powder, normalized to 10 mg/kg)
parameter: AUC (ng·h/mL)
Kindly answer with a numeric value in ng·h/mL, unit omitted.

query: Would you kindly share the measured AUC for O=NO [sodium nitrite] ?
result: 4270

====

Assay: in vivo
Conditions: rat, plasma, inhaled or intranasal, 700 ug/kg
parameter: AUC
Reply with the number, then its unit.

query: So what's the measured AUC for this one? O=NO [sodium nitrite]
result: 292 ng·h/mL

====

Assay: in vivo
Settings: male, Sprague-Dawley, rat, plasma, inhaled or intranasal, 10 mg/kg, Cmax, IT (dry powder, normalized to 10 mg/kg)
parameter: Cmax
Please give the number followed by its unit.

query: # input compound: O=NO [sodium nitrite] ; wanted: its Cmax
result: 172 µM

====

Test: in vivo
Conditions: male, Sprague-Dawley, rat, plasma, inhaled or intranasal, 10 mg/kg, T1/2, rat, IT (liquid, 10 mg/kg)
parameter: half-life (min)
Enter your answer as a number in min; do not include the unit.

query: What does the data say about its half-life? Entry: O=NO [sodium nitrite]
result: 10

====

Assay: in vivo
Details: male, Sprague-Dawley, rat, plasma, iv, 10 mg/kg, AUC, IV (10 mg/kg)
parameter: AUC (ng·h/mL)
Report only the number, with the unit ng·h/mL understood.

query: If you can, please state the reported AUC value of O=NO [sodium nitrite] .
result: 8120

====

Assay: in vivo
Conditions: rat, plasma, inhaled or intranasal, 90 ug/kg
Method: Rats (n=3-4/group, ˜400 gm) were anesthetized with Isoflorane and the dry powder was insufflated intratracheally using a Penn-Century Insufflator (model DP-4: Philadelphia, Pa.). Blood was collected in heparinized tubes just prior to dosing, 5, 15, 30 and 60 minutes after dosing, immediately put on wet ice and then centrifuged at 13,000 rpm in a microcentrifuge for 45 sec. Plasma was harvested and frozen at −80° C. until analysis.
parameter: Cmax
Please make sure the unit comes right after the number.

query: Query: Cmax; subject: O=NO [sodium nitrite]
result: 1800 nM

====

Experiment: in vivo
Settings: male, Sprague-Dawley, rat, plasma, inhaled or intranasal, 10 mg/kg, AUC, IT (liquid, 10 mg/kg)
parameter: AUC (ng·h/mL)
Number only, in ng·h/mL; omit the unit.

query: Request the reported AUC associated with O=NO [sodium nitrite]
result: 2820

====

Experiment: in vivo
Conditions: male, Sprague-Dawley, rat, plasma, inhaled or intranasal, 10 mg/kg, Cmax, IT (liquid, 10 mg/kg)
parameter: Cmax (µM)
Kindly provide the numeric value in µM only, without the unit symbol.

query: Request the reported Cmax associated with O=NO [sodium nitrite]
result: 164

====

Experiment: in vivo
Conditions: rat, plasma, inhaled or intranasal, 700 ug/kg
Description: Rats (n=3-4/group, ˜400 gm) were anesthetized with Isoflorane and the dry powder was insufflated intratracheally using a Penn-Century Insufflator (model DP-4: Philadelphia, Pa.). Blood was collected in heparinized tubes just prior to dosing, 5, 15, 30 and 60 minutes after dosing, immediately put on wet ice and then centrifuged at 13,000 rpm in a microcentrifuge for 45 sec. Plasma was harvested and frozen at −80° C. until analysis.
parameter: half-life (min)
Response body: numeric value in min, unit text excluded.

query: Endpoint output: half-life of O=NO [sodium nitrite] . Value?
result: 10

====

Assay: in vivo
Conditions: rat, plasma, inhaled or intranasal, 700 ug/kg
parameter: Tmax

query: Form field: reported Tmax of O=NO [sodium nitrite]
result: 5 min

====

Test: in vivo
Conditions: rat, plasma, inhaled or intranasal, 700 ug/kg
parameter: Cmax (µM)
Expressed in µM, but write only the number.

query: Form field: reported Cmax of O=NO [sodium nitrite]
result: 25.8

====

Assay: in vivo
Conditions: rat, plasma, other: intratracheal insufflation of dry powder, 10 ug/kg
Description: Rats (n=3-4/group, ˜400 gm) were anesthetized with Isoflorane and the dry powder was insufflated intratracheally using a Penn-Century Insufflator (model DP-4: Philadelphia, Pa.). Blood was collected in heparinized tubes just prior to dosing, 5, 15, 30 and 60 minutes after dosing, immediately put on wet ice and then centrifuged at 13,000 rpm in a microcentrifuge for 45 sec. Plasma was harvested and frozen at −80° C. until analysis.
parameter: Cmax

query: What does the record list as Cmax for O=NO [sodium nitrite] ?
result: ~200 nM

====

Assay: in vivo
Settings: male, Sprague-Dawley, rat, plasma, inhaled or intranasal, 10 mg/kg, T1/2, rat, IT (dry powder, normalized to 10 mg/kg)
parameter: half-life (min)
Provide the reading as a plain figure in min.

query: Give the measured half-life of O=NO [sodium nitrite] .
result: 19

====

Assay: in vivo
Conditions: rat, plasma, inhaled or intranasal, 90 ug/kg
parameter: Tmax (min)
Report the figure in min without appending any unit label.

query: Given the molecule O=NO [sodium nitrite] , what is its reported Tmax?
result: 5

====

Experiment: in vivo
Conditions: rat, plasma, inhaled or intranasal, 90 ug/kg
Experimental: Rats (n=3-4/group, ˜400 gm) were anesthetized with Isoflorane and the dry powder was insufflated intratracheally using a Penn-Century Insufflator (model DP-4: Philadelphia, Pa.). Blood was collected in heparinized tubes just prior to dosing, 5, 15, 30 and 60 minutes after dosing, immediately put on wet ice and then centrifuged at 13,000 rpm in a microcentrifuge for 45 sec. Plasma was harvested and frozen at −80° C. until analysis.
parameter: half-life (min)
Unit min implied. Number only.

query: Name the reported half-life value associated with the compound O=NO [sodium nitrite]
result: 4

====

Experiment: in vivo
Settings: male, Sprague-Dawley, rat, plasma, iv, 10 mg/kg, Cmax, IV (10 mg/kg)
parameter: Cmax
For clarity, give the value followed by its unit.

query: // Cmax lookup, key: O=NO [sodium nitrite]
result: 312 µM
